- systemUnderTest: SMARCA2 (Homo sapiens)
- Construct: endogenous in cells
- experimentNotes: SMARCA2 HiBiT degradation assay (cellular)
- Format: cell-based
- details: A549, Emax = amount of residual protein remaining in the cell following compound treatment
testReadout: Emax (%)

Previously resolved entries follow.
Cc1ncsc1-c1ccc([C@H](C)NC(=O)[C@@H]2C[C@@H](O)CN2C(=O)[C@@H](NC(=O)CCCCCCCCCCC(=O)N2CCN(c3cccc(N4CCCC(Oc5cc(-c6ccccc6O)nnc5N)C4)c3)CC2)C(C)(C)C)cc1 (mixture of isomers) [Example 92] : 45
Cc1ncsc1-c1ccc([C@H](C)NC(=O)[C@@H]2C[C@@H](O)CN2C(=O)[C@@H](NC(=O)CCC(=O)N2CCN(c3ccc(N4CCCC(Oc5cc(-c6ccccc6O)nnc5N)C4)cc3)CC2)C(C)(C)C)cc1 (mixture of isomers) [Example 47] : 55

[A] Cc1ncsc1-c1ccc([C@H](C)NC(=O)[C@@H]2C[C@@H](O)CN2C(=O)[C@@H](NC(=O)CCCCCCCCC(=O)N2CCN(CCOc3cccc(CCOc4cc(-c5ccccc5O)nnc4N)c3)CC2)C(C)(C)C)cc1 [Example 58]
[B] Cc1ncsc1-c1ccc([C@H](C)NC(=O)[C@@H]2C[C@@H](O)CN2C(=O)[C@@H](NC(=O)CCOCCC(=O)N2CCN(c3ccc(CN4CCCC(Oc5cc(-c6ccccc6O)nnc5N)C4)cc3)CC2)C(C)(C)C)cc1 (mixture of isomers) [Example 38]
Q: Which is greater in Emax, the first item A or the second item B ? Which one? Tell me its label.
A: B

----------
- systemUnderTest: SMARCA2 (Homo sapiens, UniProt P51531)
- Construct: endogenous in cells
- Sequence (P51531 whole entry): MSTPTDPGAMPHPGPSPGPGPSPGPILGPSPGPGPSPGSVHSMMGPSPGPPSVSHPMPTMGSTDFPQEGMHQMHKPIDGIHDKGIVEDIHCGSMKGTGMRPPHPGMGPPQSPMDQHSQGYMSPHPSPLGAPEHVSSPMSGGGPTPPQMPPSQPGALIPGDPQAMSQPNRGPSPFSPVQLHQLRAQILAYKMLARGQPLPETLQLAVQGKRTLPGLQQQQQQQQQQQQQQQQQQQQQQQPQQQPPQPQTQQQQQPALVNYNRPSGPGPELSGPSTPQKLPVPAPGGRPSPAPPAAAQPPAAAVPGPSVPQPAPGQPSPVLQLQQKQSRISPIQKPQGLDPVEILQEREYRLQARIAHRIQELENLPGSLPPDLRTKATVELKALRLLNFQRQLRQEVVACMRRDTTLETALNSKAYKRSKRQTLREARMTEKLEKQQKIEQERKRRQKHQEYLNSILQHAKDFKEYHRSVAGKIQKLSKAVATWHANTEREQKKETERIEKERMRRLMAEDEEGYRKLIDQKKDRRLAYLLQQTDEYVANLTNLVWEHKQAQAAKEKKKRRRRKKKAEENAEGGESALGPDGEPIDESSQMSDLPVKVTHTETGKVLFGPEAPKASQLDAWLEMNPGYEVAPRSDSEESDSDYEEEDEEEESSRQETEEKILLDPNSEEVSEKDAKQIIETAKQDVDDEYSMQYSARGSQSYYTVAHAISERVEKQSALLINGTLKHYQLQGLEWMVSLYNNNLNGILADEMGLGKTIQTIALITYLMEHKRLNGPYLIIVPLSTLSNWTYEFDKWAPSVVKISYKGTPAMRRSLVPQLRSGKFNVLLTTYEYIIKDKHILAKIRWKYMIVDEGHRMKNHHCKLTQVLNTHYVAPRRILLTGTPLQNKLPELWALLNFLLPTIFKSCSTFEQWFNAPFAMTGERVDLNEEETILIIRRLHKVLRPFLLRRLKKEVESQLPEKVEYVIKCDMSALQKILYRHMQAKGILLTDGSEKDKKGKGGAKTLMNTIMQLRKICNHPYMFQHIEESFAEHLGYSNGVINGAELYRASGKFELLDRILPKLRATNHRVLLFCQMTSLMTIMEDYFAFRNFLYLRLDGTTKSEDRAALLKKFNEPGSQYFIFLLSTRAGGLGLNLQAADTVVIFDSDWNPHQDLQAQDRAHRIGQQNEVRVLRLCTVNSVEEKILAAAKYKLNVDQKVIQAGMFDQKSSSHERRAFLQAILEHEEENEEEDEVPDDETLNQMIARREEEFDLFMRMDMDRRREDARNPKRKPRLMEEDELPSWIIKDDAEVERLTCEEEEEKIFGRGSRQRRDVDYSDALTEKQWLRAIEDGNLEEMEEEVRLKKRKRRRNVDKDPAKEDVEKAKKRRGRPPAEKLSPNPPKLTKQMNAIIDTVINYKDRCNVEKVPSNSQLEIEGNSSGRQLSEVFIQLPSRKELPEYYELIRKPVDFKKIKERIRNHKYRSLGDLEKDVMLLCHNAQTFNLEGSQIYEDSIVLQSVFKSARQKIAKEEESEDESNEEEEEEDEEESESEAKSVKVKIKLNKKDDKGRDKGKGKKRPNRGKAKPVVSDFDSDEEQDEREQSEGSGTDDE
- experimentNotes: SMARCA2 HiBiT degradation assay (cellular)
- Format: cell-based
- details: SMARCA2 HiBiT cells, luminescence readout, 11-point titration from 10 μM, 6 hours or 16 hours; read-out: HiBit A549 SMARCA2 IP
testReadout: DC50 (nM)

Previously resolved entries follow.
Cc1ncsc1-c1ccc(CNC(=O)[C@@H]2C[C@@H](O)CN2C(=O)[C@@H](NC(=O)CCCCCCCCC(=O)N2CCN(CCOc3cccc(N4C5CCC4CN(c4cc(-c6ccccc6O)nnc4N)C5)c3)CC2)C(C)(C)C)cc1 [Example 10] : 286
Cc1ncsc1-c1ccc(CNC(=O)[C@@H]2C[C@@H](O)CN2C(=O)[C@@H](NC(=O)CCCCCCCC(=O)N2CCN(Cc3cccc(N4C5CCC4CN(c4cc(-c6ccccc6O)nnc4N)C5)c3)CC2)C(C)(C)C)cc1 [Example 3] : 479

[A] Cc1ncsc1-c1ccc([C@H](C)NC(=O)[C@@H]2C[C@@H](O)CN2C(=O)[C@@H](NC(=O)CCCCCCCCCCCCC(=O)N2CCN(CCOc3ccc(N4CCCC(Oc5cc(-c6ccccc6O)nnc5N)C4)cc3)CC2)C(C)(C)C)cc1 (mixture of isomers) [Example 80]
[B] Cc1ncsc1-c1ccc([C@H](C)NC(=O)[C@@H]2C[C@@H](O)CN2C(=O)[C@@H](NC(=O)CCCCCCCCC(=O)N2CCN(CCOc3cccc(CCOc4cc(-c5ccccc5O)nnc4N)c3)CC2)C(C)(C)C)cc1 [Example 58]
Q: Which is greater in DC50, the first item A or the second item B ? Which one? Tell me its label.
A: A

----------
Recorded DC50 by entry
- systemUnderTest: SMARCA2 (Homo sapiens)
- Construct: endogenous in cells
- experimentNotes: SMARCA2 HiBiT degradation assay (cellular)
- Assay type: cell-based
- details: SMARCA2 HiBiT cells, luminescence readout, 11-point titration from 10 μM, 6 hours or 16 hours; read-out: HiBit A549 SMARCA2 IP
Field format: number, assumed nM, no unit text.

Cc1ncsc1-c1ccc(CNC(=O)[C@@H]2C[C@@H](O)CN2C(=O)[C@@H](NC(=O)CCCCCCCCCC(=O)N2CCN(Cc3cccc(N4C5CCC4CN(c4cc(-c6ccccc6O)nnc4N)C5)c3)CC2)C(C)(C)C)cc1 [Example 7] : 357

Let us move to another entry and its DC50.
Q: Entry under review: Cc1ncsc1-c1ccc([C@H](C)NC(=O)[C@@H]2C[C@@H](O)CN2C(=O)[C@@H](NC(=O)CCCCCCCCCCC(=O)N2CCN(c3cccc(N4CCCC(Oc5cc(-c6ccccc6O)nnc5N)C4)c3)CC2)C(C)(C)C)cc1 (mixture of isomers) [Example 92] . Reported DC50?
A: 560

----------
- systemUnderTest: SMARCA2 (Homo sapiens)
- Construct: endogenous in cells
- experimentNotes: SMARCA2 HiBiT degradation assay (cellular)
- Format: cell-based
- details: SMARCA2 HiBiT cells, luminescence readout, 11-point titration from 10 μM, 6 hours or 16 hours; read-out: HiBit A549 SMARCA2 IP
testReadout: DC50 (nM)

Previously resolved entries follow.
Cc1ncsc1-c1ccc(CNC(=O)[C@@H]2C[C@@H](O)CN2C(=O)[C@@H](NC(=O)CCCCCCCCC(=O)N2CCN(Cc3cccc(C#Cc4cc(-c5ccccc5O)nnc4N)c3)CC2)C(C)(C)C)cc1 : 240
Cc1ncsc1-c1ccc([C@H](C)NC(=O)[C@@H]2C[C@@H](O)CN2C(=O)[C@@H](NC(=O)CCCCCCCCCCCCC(=O)N2CCN(CCOc3cccc(N4CCCC(Oc5cc(-c6ccccc6O)nnc5N)C4)c3)CC2)C(C)(C)C)cc1 (mixture of isomers) : 504
Cc1ncsc1-c1ccc([C@H](C)NC(=O)[C@@H]2C[C@@H](O)CN2C(=O)[C@@H](NC(=O)CCCCCCCCCCCCC(=O)N2CCN(c3ccc(N4CCCC(Oc5cc(-c6ccccc6O)nnc5N)C4)cc3)CC2)C(C)(C)C)cc1 (mixture of isomers) : 207
Cc1ncsc1-c1ccc([C@H](C)NC(=O)[C@@H]2C[C@@H](O)CN2C(=O)[C@@H](NC(=O)CCCCCCCCCCC(=O)N(C)CCCN(C)c2ccc(CCOc3cc(-c4ccccc4O)nnc3N)cc2)C(C)(C)C)cc1 (racemic) : 330
Cc1ncsc1-c1ccc(CNC(=O)[C@@H]2C[C@@H](O)CN2C(=O)[C@@H](NC(=O)CCCCCCCCC(=O)N2CCC(CNC(=O)C3CN(c4cc(-c5ccccc5O)nnc4N)CCN3c3ccccc3)CC2)C(C)(C)C)cc1 (mixture of isomers) : 1150
Cc1ncsc1-c1ccc([C@H](C)NC(=O)[C@@H]2C[C@@H](O)CN2C(=O)[C@@H](NC(=O)CCOCCOCCC(=O)N(C)CC(COc2cc(-c3ccccc3O)nnc2N)c2ccccc2)C(C)(C)C)cc1 (mixture of isomers) : 2850

[P] Cc1ncsc1-c1ccc([C@H](C)NC(=O)[C@@H]2C[C@@H](O)CN2C(=O)[C@@H](NC(=O)CCC(=O)N2CCN(c3ccc(N4CCCC(Oc5cc(-c6ccccc6O)nnc5N)C4)cc3)CC2)C(C)(C)C)cc1 (mixture of isomers)
[Q] Cc1ncsc1-c1ccc([C@H](C)NC(=O)[C@@H]2C[C@@H](O)CN2C(=O)[C@@H](NC(=O)CCCCCCCCC(=O)N2CCN(c3cccc(OC4CN(c5cc(-c6ccccc6O)nnc5N)C4)c3)CC2)C(C)(C)C)cc1
Q: Quick one: lower DC50, P or Q ? Which one? Tell me its label.
A: Q
(Q: 200 nM, P: 733 nM)

----------
- systemUnderTest: SMARCA2 (Homo sapiens)
- Construct: endogenous in cells
- experimentNotes: SMARCA2 HiBiT degradation assay (cellular)
- Assay type: cell-based
- details: SMARCA2 HiBiT cells, luminescence readout, 11-point titration from 10 μM, 6 hours or 16 hours; read-out: HiBit A549 SMARCA2 IP
testReadout: DC50 (µM)

Previously resolved entries follow.
Cc1ncsc1-c1ccc(CNC(=O)[C@@H]2C[C@@H](O)CN2C(=O)[C@@H](NC(=O)CCCCCCCCCCC(=O)N2C3CCC2CN(c2cc(-c4ccccc4O)nnc2N)C3)C(C)(C)C)cc1 : 0.902
Cc1ncsc1-c1ccc([C@H](C)NC(=O)[C@@H]2C[C@@H](O)CN2C(=O)[C@@H](NC(=O)CCC(=O)N2CCN(CCOc3cccc(CCOc4cc(-c5ccccc5O)nnc4N)c3)CC2)C(C)(C)C)cc1 : 1.65
Cc1ncsc1-c1ccc(CNC(=O)[C@@H]2C[C@@H](O)CN2C(=O)[C@@H](NC(=O)CCCCCC(=O)N2C3CCC2CN(c2cc(-c4ccccc4O)nnc2N)C3)C(C)(C)C)cc1 : 2.19

[P] Cc1ncsc1-c1ccc(CNC(=O)[C@@H]2C[C@@H](O)CN2C(=O)[C@@H](NC(=O)CCCCCC(=O)N2CC(Oc3cc(-c4ccccc4O)nnc3N)CC(c3ccccc3)C2)C(C)(C)C)cc1 (mixture of isomers)
[Q] Cc1ncsc1-c1ccc([C@H](C)NC(=O)[C@@H]2C[C@@H](O)CN2C(=O)[C@@H](NC(=O)CCCCCCCCC(=O)N2CCN(Cc3cccc(C(C)Oc4cc(-c5ccccc5O)nnc4N)c3)CC2)C(C)(C)C)cc1 (mixture of isomers)
Q: Quick one: lower DC50, P or Q ? Which one? Tell me its label.
A: Q
